Target Or System: human TLR7 (Homo sapiens (Human))
Sequence (Q9NYK1 27-1049): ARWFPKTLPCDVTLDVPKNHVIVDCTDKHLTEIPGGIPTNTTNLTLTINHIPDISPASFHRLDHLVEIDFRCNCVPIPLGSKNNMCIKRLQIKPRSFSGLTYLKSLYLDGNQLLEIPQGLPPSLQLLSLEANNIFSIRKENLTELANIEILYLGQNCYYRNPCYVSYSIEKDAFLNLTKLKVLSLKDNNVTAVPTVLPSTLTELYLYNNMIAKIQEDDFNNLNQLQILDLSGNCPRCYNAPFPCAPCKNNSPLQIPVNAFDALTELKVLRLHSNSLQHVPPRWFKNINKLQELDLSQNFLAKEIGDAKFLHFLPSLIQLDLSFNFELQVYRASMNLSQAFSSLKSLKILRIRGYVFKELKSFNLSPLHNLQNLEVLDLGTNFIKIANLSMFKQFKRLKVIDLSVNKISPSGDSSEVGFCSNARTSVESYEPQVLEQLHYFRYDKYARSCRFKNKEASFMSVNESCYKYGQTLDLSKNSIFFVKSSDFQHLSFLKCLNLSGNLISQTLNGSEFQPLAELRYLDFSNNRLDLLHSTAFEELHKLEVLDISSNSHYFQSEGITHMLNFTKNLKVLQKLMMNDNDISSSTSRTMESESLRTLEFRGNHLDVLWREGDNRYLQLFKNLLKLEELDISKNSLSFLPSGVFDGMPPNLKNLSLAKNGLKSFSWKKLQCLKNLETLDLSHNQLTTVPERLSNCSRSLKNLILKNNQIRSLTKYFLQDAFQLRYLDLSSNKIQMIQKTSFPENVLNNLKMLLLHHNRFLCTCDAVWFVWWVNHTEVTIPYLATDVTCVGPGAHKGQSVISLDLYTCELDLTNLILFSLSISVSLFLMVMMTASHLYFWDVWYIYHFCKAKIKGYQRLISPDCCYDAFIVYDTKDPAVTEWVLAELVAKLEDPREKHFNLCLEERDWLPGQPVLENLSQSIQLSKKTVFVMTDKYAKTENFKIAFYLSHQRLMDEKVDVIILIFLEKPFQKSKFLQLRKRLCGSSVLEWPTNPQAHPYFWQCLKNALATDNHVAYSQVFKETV
Assay Text: TLR7 inhibition reporter assay (HEK-Blue SEAP reporter, gardiquimod stimulation)
Type: cell-based
Experimental Conditions: HEK-Blue cells overexpressing human TLR7, gardiquimod 7.5 μM, listed as 700
Measured Parameter: pIC50
Give bare numbers, as −log10 of the molar value.

Exercise: // lookup pIC50 for Cc1cc(-c2[nH]c3ccc(C(C)C(=O)N4CCCC5(CCCCC5N)C4)cc3c2C(C)C)ccn1 (stereo not shown) [Example 200]
Key: 7.92

====

Target Or System: human TLR7 (Homo sapiens (Human))
Assay Text: TLR7 inhibition reporter assay (HEK-Blue SEAP reporter, gardiquimod stimulation)
Assay type: cell-based
Experimental Conditions: HEK-Blue cells overexpressing human TLR7, gardiquimod 7.5 μM
pIC50: −log10 of the molar value.
Cut-off 7 on pIC50, inclusive. At or above means yes; below means no.

Use the examples below as a reference point.
INSERT INTO assay_data (compound, category) VALUES
  ('Cc1cc(-c2[nH]c3ccc(C(=O)N(C)Cc4ccccc4)cc3c2C(C)C)cc(C)n1', 'no'),
  ('CCc1c(-c2ccc(OC)c(OC)c2)[nH]c2ccc(C(=O)N3CCN(C4CCN(C(C)C)CC4)CC3)cc12', 'no'),
  ('CCc1c(-c2ccc(OC)c(OC)c2)[nH]c2ccc(C(=O)N(CC)CCN(C)C)cc12', 'yes'),
  ('CCc1c(-c2ccc(OC)c(OC)c2)[nH]c2ccc(C(=O)N3CCC(C(N)=O)CC3)cc12', 'no');

Continue with the compound presented below.
Exercise: Quick check, pIC50 >= 7? Cc1cc(-c2[nH]c3ccc(C(C)C(=O)N[C@@H]4CCNC4)cc3c2C(C)C)ccn1 (some centres unmarked)
Key: no
